Data credit: paper PMC6941357

# Tested On: CYP3A4 (Homo sapiens)
# Sequence (P08684 whole entry): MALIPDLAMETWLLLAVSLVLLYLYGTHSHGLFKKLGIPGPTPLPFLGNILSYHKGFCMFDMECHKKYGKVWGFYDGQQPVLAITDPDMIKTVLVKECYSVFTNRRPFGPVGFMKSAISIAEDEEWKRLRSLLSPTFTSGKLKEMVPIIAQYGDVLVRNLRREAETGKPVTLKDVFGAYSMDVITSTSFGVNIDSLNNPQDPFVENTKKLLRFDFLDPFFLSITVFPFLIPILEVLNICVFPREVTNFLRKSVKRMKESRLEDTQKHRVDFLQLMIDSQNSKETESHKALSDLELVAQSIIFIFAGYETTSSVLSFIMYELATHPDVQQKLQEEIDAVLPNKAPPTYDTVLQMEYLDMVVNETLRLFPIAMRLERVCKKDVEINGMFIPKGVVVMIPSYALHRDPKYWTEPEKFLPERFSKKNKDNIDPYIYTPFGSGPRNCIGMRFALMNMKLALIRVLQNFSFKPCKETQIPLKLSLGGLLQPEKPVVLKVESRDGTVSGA
# Test: in vitro
# Measurement Parameters: human, microsomes, pH 7.4, CYP3A4 (test) % inhibition at max conc
inhibition at 20 µM listing for selected compounds.

Compound	Unit Info	inhibition at 20 µM
N#Cc1cc(NC(=O)[C@H]2c3ccccc3C(=O)N(CC(F)(F)F)[C@@H]2c2cccnc2)ccc1F	%	37
CC(C)(N)CNC(=O)C[C@H]1CC[C@]2(CC1)OO[C@]1(O2)C2CC3CC(C2)CC1C3	%	46
C[C@H]1c2cccc(O)c2C(=O)C2=C(O)[C@]3(O)C(=O)C(C(N)=O)=C(O)[C@@H](N(C)C)[C@@H]3[C@@H](O)[C@@H]21	%	22
CC(C)NC(=N)NC(=N)Nc1ccc(Cl)c(Cl)c1	%	41
OC(c1cc(C(F)(F)F)nc2c(C(F)(F)F)cccc12)C1CCCCN1 (stereo not drawn)	%	29
[H]/N=C(\N/C(=N/[H])Nc1ccc(Cl)cc1)NC(C)C	%	24
C[C@H]1Cc2c([nH]c3cc(Cl)c(F)cc23)[C@@]2(N1)C(=O)Nc1ccc(Cl)cc12	%	30
CO[C@H]1O[C@@H]2O[C@@]3(C)CC[C@H]4[C@H](C)CC[C@@H]([C@H]1C)[C@@]24OO3	%	37
Cc1nc(Nc2ncc(N3CCN(C)[C@H](C)C3)c(Nc3cc(C)n(C)n3)n2)cc(C2CC2)c1F	%	37

* * *

# Test: physchem
Property Measured: SLAD (mg)

Compound	Unit Info	Result Qualifier	Observed Result
CC(C)(C)NCc1cc(Nc2ccnc3cc(Cl)ccc23)c2c(c1O)CCCC2 [Naphthoquine]	mg	=	2250
O=C(NCCN1CCCC1)c1cc(-c2ccc(CN3CCOCC3)cc2)nc2ccc(F)cc12 [M5717]	mg	>	6050
COc1cc2[nH]c(C)c(-c3ccc(Oc4ccc(OC(F)(F)F)cc4)cc3)c(=O)c2cc1Cl [ELQ300]	mg	=	3
CCc1nc(N)nc(N)c1OCCCOc1ccccc1CCC(=O)O.Cl [P218]	mg	=	204
CC(C)(C)NCc1cc(C(C)(C)C)cc(-c2cnc(C(F)(F)F)c(F)c2)c1O [JPC3210]	mg	=	51
CC1(C)CC(O)(COc2ccc(C3CCC4(CC3)OOC3(O4)C4CC5CC(C4)CC3C5)cc2)CC(C)(C)N1 (stereo not drawn) [MMV052]	mg	=	7580
CS(=O)(=O)O.FC1CCN(CCOc2ccc(C3CCC4(CC3)OOC3(OO4)C4CC5CC(C4)CC3C5)cc2)CC1 (stereo not drawn) [TDD-E209]	mg	=	579
Cc1cc(Nc2ccc(C(F)(F)F)nc2)n2nc(C(C)(F)F)nc2n1 [DSM421]	mg	=	182
CCN(CC)CCCNc1ccnc2cc(Cl)ccc12.Cl.Cl [AQ-13]	mg	>	2250

* * *

# Test: Binding to human liver microsomes via ultracentrifugation
# Assay type: in vitro ADME
# Measurement Parameters: human, liver microsomes, pH 7.4, 0.4 mg/mL protein, read-out: Fraction unbound, HLM
Property Measured: fraction unbound at […]

Molecule	Property Measured	Observed Result
CO[C@H]1O[C@@H]2O[C@@]3(C)CC[C@H]4[C@H](C)CC[C@@H]([C@H]1C)[C@@]24OO3	fraction unbound at […]	0.5
C[C@H]1c2cccc(O)c2C(=O)C2=C(O)[C@]3(O)C(=O)C(C(N)=O)=C(O)[C@@H](N(C)C)[C@@H]3[C@@H](O)[C@@H]21	fraction unbound at […]	0.93
C[C@H]1Cc2c([nH]c3cc(Cl)c(F)cc23)[C@@]2(N1)C(=O)Nc1ccc(Cl)cc12	fraction unbound at […]	0.019
COc1cc(C)c2c(Oc3cccc(C(F)(F)F)c3)c(OC)cc(NC(C)CCCN)c2n1 (stereo not shown)	fraction unbound at […]	0.002
CCCCN(CCCC)CCC(O)c1cc2c(Cl)cc(Cl)cc2c2cc(C(F)(F)F)ccc12 (stereo not shown)	fraction unbound at […]	0.002
CS(=O)(=O)c1ccc(-c2cnc(N)c(-c3ccc(C(F)(F)F)nc3)c2)cc1	fraction unbound at […]	0.61
C[C@H]1[C@H](N2CCS(=O)(=O)CC2)O[C@@H]2O[C@@]3(C)CC[C@H]4[C@H](C)CC[C@@H]1[C@@]24OO3	fraction unbound at […]	0.44
Nc1ccc(S(=O)(=O)c2ccc(N)cc2)cc1	fraction unbound at […]	0.86
OC(c1cc(C(F)(F)F)nc2c(C(F)(F)F)cccc12)C1CCCCN1 (stereo not shown)	fraction unbound at […]	0.05
N#Cc1cc(NC(=O)[C@H]2c3ccccc3C(=O)N(CC(F)(F)F)[C@@H]2c2cccnc2)ccc1F	fraction unbound at […]	0.58
CCN(CC)Cc1cc(Nc2ccnc3cc(Cl)ccc23)ccc1O	fraction unbound at […]	0.91
CC[C@H]1OC(=O)[C@H](C)[C@@H](O[C@H]2C[C@@](C)(OC)[C@@H](O)[C@H](C)O2)[C@H](C)[C@@H](O[C@@H]2O[C@H](C)C[C@H](N(C)C)[C@H]2O)[C@](C)(O)C[C@@H](C)CN(C)[C@H](C)[C@@H](O)[C@]1(C)O	fraction unbound at […]	0.7

* * *

# Test: Bidirectional permeability across Caco-2 cell monolayers
# Measurement Parameters: human, Caco-2, A–B Papp, matrix: human plasma, corrected for fu
Classification field: enter class 1 for Papp A→B values not below 50 ×10⁻⁶ cm/s, class 0 for values below it.

Molecule	Assigned Class
C[C@H]1Cc2c([nH]c3cc(Cl)c(F)cc23)[C@@]2(N1)C(=O)Nc1ccc(Cl)cc12	class 1
CC(C)(N)CNC(=O)C[C@H]1CC[C@]2(CC1)OO[C@]1(O2)C2CC3CC(C2)CC1C3	class 0
COc1ccc2nc3cc(Cl)ccc3c(Nc3cc(CN4CCCC4)c(O)c(CN4CCCC4)c3)c2n1	class 0
CC(C)NC(=N)NC(=N)Nc1ccc(Cl)c(Cl)c1	class 0
c1cc([C@H]2CC[C@]3(CC2)OO[C@]2(O3)C3CC4CC(C3)CC2C4)ccc1OCCN1CCOCC1	class 1
Cc1nc(Nc2ncc(N3CCN(C)[C@H](C)C3)c(Nc3cc(C)n(C)n3)n2)cc(C2CC2)c1F	class 1
CC1(C)c2nc(-c3ccc(F)cc3)c(Nc3ccc(F)cc3)n2CCN1C(=O)CN	class 0
COc1cc(C)c2c(Oc3cccc(C(F)(F)F)c3)c(OC)cc(NC(C)CCCN)c2n1 (centres unmarked)	class 1

* * *

fraction unbound at […], 500 ng/mL listing for selected compounds.
# Tested On: Albumax medium (lipid rich bovine serum albumin) (Bos taurus, UniProt P02769)
# Construct: purchased Gibco, Thermo Fisher Scientific
# Sequence (P02769 25-607): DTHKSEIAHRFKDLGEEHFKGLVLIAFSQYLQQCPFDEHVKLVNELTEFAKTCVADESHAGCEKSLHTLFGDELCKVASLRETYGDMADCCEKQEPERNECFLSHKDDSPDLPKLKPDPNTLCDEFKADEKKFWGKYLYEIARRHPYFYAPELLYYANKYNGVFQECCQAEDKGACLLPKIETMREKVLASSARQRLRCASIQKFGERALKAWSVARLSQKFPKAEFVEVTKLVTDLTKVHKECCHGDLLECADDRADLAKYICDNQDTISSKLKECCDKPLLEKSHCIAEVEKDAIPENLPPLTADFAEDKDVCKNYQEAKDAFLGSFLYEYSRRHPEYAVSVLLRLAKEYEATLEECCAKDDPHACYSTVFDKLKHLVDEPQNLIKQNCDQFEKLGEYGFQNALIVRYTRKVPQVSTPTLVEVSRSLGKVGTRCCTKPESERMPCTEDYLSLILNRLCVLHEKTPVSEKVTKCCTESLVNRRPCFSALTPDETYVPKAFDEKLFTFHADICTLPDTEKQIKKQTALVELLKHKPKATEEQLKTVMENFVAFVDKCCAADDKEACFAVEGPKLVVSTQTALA
# Test: Binding in Albumax medium via ultracentrifugation
# Assay type: in vitro ADME
# Measurement Parameters: bovine, Albumax medium, pH 7.4

Compound	Tested On	fraction unbound at […], 500 ng/mL
Nc1ccc(S(=O)(=O)c2ccc(N)cc2)cc1	Albumax medium (lipid rich bovine serum albumin) (Bos taurus, UniProt P02769)	0.63
CCN(CC)Cc1cc(Nc2ccnc3cc(Cl)ccc23)ccc1O	Albumax medium (lipid rich bovine serum albumin) (Bos taurus, UniProt P02769)	0.67
OC(c1cc(C(F)(F)F)nc2c(C(F)(F)F)cccc12)C1CCCCN1 (stereo not shown)	Albumax medium (lipid rich bovine serum albumin) (Bos taurus, UniProt P02769)	0.27
CCCCN(CCCC)CCC(O)c1cc2c(Cl)cc(Cl)cc2c2cc(C(F)(F)F)ccc12 (stereo not shown)	Albumax medium (lipid rich bovine serum albumin) (Bos taurus, UniProt P02769)	0.008

* * *

A–B Papp listing for selected compounds.
# Test system: Caco-2 cell monolayers
# Test: Bidirectional permeability across Caco-2 cell monolayers
# Measurement Parameters: matrix: pH 7.4 buffer
Property Measured: A–B Papp

Record Smiles	Observed Result
N#Cc1cc(NC(=O)[C@H]2c3ccccc3C(=O)N(CC(F)(F)F)[C@@H]2c2cccnc2)ccc1F	13.4 10^−6 cm/s
[H]/N=C(\N/C(=N/[H])Nc1ccc(Cl)cc1)NC(C)C	3.5 ± 0.75 10^−6 cm/s
CC1(C)N=C(N)N=C(N)N1c1ccc(Cl)cc1	1.2 ± 0.070 10^−6 cm/s
C[C@H]1c2cccc(O)c2C(=O)C2=C(O)[C@]3(O)C(=O)C(C(N)=O)=C(O)[C@@H](N(C)C)[C@@H]3[C@@H](O)[C@@H]21	3.4 ± 0.23 10^−6 cm/s
C[C@H]1[C@H](N2CCS(=O)(=O)CC2)O[C@@H]2O[C@@]3(C)CC[C@H]4[C@H](C)CC[C@@H]1[C@@]24OO3	64.5 10^−6 cm/s

* * *

Predicted human Peff listing for selected molecules.
# Test: Solubility limited absorbable dose (SLAD) calculation with predicted human jejunal Peff
# Measurement Parameters: from Caco-2 Papp via calibration plot

Molecule	Predicted human Peff
c1cc([C@H]2CC[C@]3(CC2)OO[C@]2(O3)C3CC4CC(C3)CC2C4)ccc1OCCN1CCOCC1	11 10^−4 cm/s
Cc1cc(Nc2ccc(C(F)(F)F)nc2)n2nc(C(C)(F)F)nc2n1	3.3 10^−4 cm/s
O=C(NCCN1CCCC1)c1cc(-c2ccc(CN3CCOCC3)cc2)nc2ccc(F)cc12	3.4 10^−4 cm/s
CCc1nc(N)nc(N)c1-c1ccc(Cl)cc1	4.9 10^−4 cm/s
C[C@H]1c2cccc(O)c2C(=O)C2=C(O)[C@]3(O)C(=O)C(C(N)=O)=C(O)[C@@H](N(C)C)[C@@H]3[C@@H](O)[C@@H]21	0.70 10^−4 cm/s
CC1(C)CC(O)(COc2ccc(C3CCC4(CC3)OOC3(O4)C4CC5CC(C4)CC3C5)cc2)CC(C)(C)N1 (centres unmarked)	11 10^−4 cm/s
CC1(C)c2nc(-c3ccc(F)cc3)c(Nc3ccc(F)cc3)n2CCN1C(=O)CN	2.9 10^−4 cm/s
CC(C)(C)NCc1cc(Nc2ccnc3cc(Cl)ccc23)c2c(c1O)CCCC2	9.2 10^−4 cm/s
